- study_system: CYP1A2 (Homo sapiens, UniProt P05177)
- Sequence (P05177 whole entry): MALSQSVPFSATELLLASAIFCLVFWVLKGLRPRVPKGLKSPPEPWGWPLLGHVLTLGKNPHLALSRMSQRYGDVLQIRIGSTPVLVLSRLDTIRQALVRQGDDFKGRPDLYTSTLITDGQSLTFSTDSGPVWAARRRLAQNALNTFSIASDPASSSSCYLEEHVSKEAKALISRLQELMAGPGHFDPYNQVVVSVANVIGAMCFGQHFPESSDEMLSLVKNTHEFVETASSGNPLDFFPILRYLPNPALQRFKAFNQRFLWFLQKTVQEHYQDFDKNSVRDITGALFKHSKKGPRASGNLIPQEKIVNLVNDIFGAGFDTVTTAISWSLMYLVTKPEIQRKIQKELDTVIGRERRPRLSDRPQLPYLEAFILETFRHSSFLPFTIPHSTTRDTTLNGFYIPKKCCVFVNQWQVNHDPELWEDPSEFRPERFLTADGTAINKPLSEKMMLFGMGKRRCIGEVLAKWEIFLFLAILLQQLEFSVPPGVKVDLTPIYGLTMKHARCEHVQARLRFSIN
- assay_remarks: Time dependent inhibition of human recombinant CYP1A2 coexpressed in Escherichia coli at 50 uM using phenacetin as probe
- Assay type: ADME
Task for the reader: assign each of the following molecules its reported inhibition at 50 µM.

Determine from records and report inhibition at 50 µM for c1cc(-c2nnc(C3CCCCC3)o2)ccn1
< 10%

Determine from records and report inhibition at 50 µM for c1ccc(CN2CCN(Cc3nc(-c4ccccc4)no3)CC2)cc1
< 7%

Determine from records and report inhibition at 50 µM for Clc1cc(-c2nnc(CSc3nnc(-c4ccncc4)n3C3CC3)o2)ccn1
< 10%

Determine from records and report inhibition at 50 µM for O=C(NC1CCCCC1)c1nnc(CS(=O)(=O)c2ccccc2)o1
< 7%

Determine from records and report inhibition at 50 µM for Clc1cc(-c2nc(CSc3nnc(-c4ccncc4)n3C3CC3)no2)ccn1
< 10%

Determine from records and report inhibition at 50 µM for O=C(NC1CCCCC1)c1nc(CS(=O)(=O)c2ccccc2)no1
< 7%

Determine from records and report inhibition at 50 µM for c1cc(-c2noc(C3CCCCC3)n2)ccn1
< 7%

Determine from records and report inhibition at 50 µM for O=C(NCc1ccncc1)c1nc(CS(=O)(=O)c2ccccc2)no1
< 10%

Determine from records and report inhibition at 50 µM for O=C(NCc1ccncc1)c1nnc(CS(=O)(=O)c2ccccc2)o1
< 10%
